src = ChEMBL document CHEMBL3872231

- experiment_description: Hepatotoxicity in human HepG2 cells assessed as decrease in cell viability after 48 hrs by PrestoBlue assay
- Assay type: toxicity, cell-based
- cond: HepG2 cells
measured_property: IC50 at 48 h (µM)
One number for each entry, in µM.

Which measured IC50 at 48 h value corresponds to N#CC(C#N)=NNc1cccc(Cl)c1 [CARBONYL CYANIDE M-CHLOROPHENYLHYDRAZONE] ?
6

---

- experiment_description: Hepatotoxicity in human HepG2 cells assessed as loss of mitochondrial membrane potential after 24 hrs by JC-1 staining based fluorescence assay
- Type: toxicity, cell-based
- cond: HepG2 cells
measured_property: IC50 at 24 h (µM)
Answers are plain numbers, in µM.

Which measured IC50 at 24 h value corresponds to N#CC(C#N)=NNc1cccc(Cl)c1 [CARBONYL CYANIDE M-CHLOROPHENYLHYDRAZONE] ?
36

---

- experiment_description: Hepatotoxicity in human HepG2 cells assessed as intracellular ATP level after 24 hrs by luminescence based ATP detection assay
- Format: toxicity, cell-based
- cond: HepG2 cells
measured_property: IC50 at 24 h

Which measured IC50 at 24 h value corresponds to N#CC(C#N)=NNc1cccc(Cl)c1 [CARBONYL CYANIDE M-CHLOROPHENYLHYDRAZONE] ?
9.8 µM

---

- Test system: HepG2
- experiment_description: Hepatotoxicity in human HepG2 cells assessed as cell membrane damage after 48 hrs by luminescence assay
- Format: toxicity, cell-based
- cond: hepg2, 48 h
measured_property: Activity

A selection of reference data follows.
Cc1ccc2nc(-c3ccc(F)cc3)c(CC(=O)N(C)C)n2c1 ... Non-Toxic
CN(C)C(=O)Cc1c(-c2ccc(F)cc2)nc2ccc(F)cn12 ... Non-Toxic
N#CC(C#N)=NNc1cccc(Cl)c1 [CARBONYL CYANIDE M-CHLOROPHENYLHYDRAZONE] ... Non-Toxic
Cc1ccc(-c2nc3ccc(F)cn3c2CC(=O)N(C)C)cc1 ... Non-Toxic

Shifting focus to the molecule that follows.
Which measured Activity value corresponds to Cc1ccc(-c2nc3ccc(C)cn3c2CC(=O)N(C)C)cc1 [ZOLPIDEM] ?
Non-Toxic

---

- experiment_description: Displacement of [3H]-flunitrazepam from rat brain GABA-A receptor benzodiazepine site after 20 mins by liquid scintillation counting
We'd kindly ask you to apply these Ki classes: lower band = under 0.1 µM, central band = from 0.1 µM up to 0.5 µM, upper band = 0.5 µM and over

CN(C)C(=O)Cc1c(-c2cccc(F)c2)nc2ccc(F)cn12 ... central band
Cc1ccc(-c2nc3ccc(C)cn3c2CC(=O)N(C)C)cc1 ... lower band
CN(C)C(=O)Cc1c(-c2ccc(C(F)(F)F)cc2)nc2ccc(F)cn12 ... lower band
CN(C)C(=O)Cc1c(-c2cccc(F)c2)nc2ccc(C(F)(F)F)cn12 ... upper band
CN(C)C(=O)Cc1c(-c2ccc(F)cc2F)nc2ccc(F)cn12 ... central band
CN(C)C(=O)Cc1c(-c2ccc(F)cc2F)nc2ccc(C(F)(F)F)cn12 ... upper band

State the band of `CN(C)C(=O)Cc1c(-c2ccccc2)nc2ccc(F)cn12`
central band

State the band of `Cc1ccc(-c2nc3ccc(F)cn3c2CC(=O)N(C)C)cc1`
lower band

---

Task for the reader: assign each of the following compounds its reported fold change (FC).
- system_tested: GABA-A receptor; alpha-1/beta-2/gamma-2 (Homo sapiens) (UniProt P14867+P47870+P18507)
- experiment_description: Positive allosteric modulation of human recombinant GABA-A receptor alpha1beta2gamma2 expressed in HEK293 cells assessed as potentiation of GABA induced chloride currents at 1 uM treated every 60 secs measured for 7 secs by electrophysiological method relative to GABA
- Format: cell-based
One number for each entry.

A selection of reference data follows.
CN(C)C(=O)Cc1c(-c2ccc(F)cc2)nc2ccc(F)cn12 ... 1.8
Cc1ccc(-c2nc3ccc(F)cn3c2CC(=O)N(C)C)cc1 ... 1.5
Cc1ccc2nc(-c3ccc(F)cc3)c(CC(=O)N(C)C)n2c1 ... 1.9

Shifting focus to the compound that follows.
Which measured fold change (FC) value corresponds to Cc1ccc(-c2nc3ccc(C)cn3c2CC(=O)N(C)C)cc1 [ZOLPIDEM] ?
2.5
